- ASSAY_SYSTEM: PKA (Homo sapiens, UniProt P17612)
# Ki values compiled below
TEST_READOUT: Ki

COMPOUND	TEST_READOUT	MEASUREMENT
O=C(Cc1ccccn1)Nc1nc(-c2c[nH]c3ncccc23)cs1 [II-215]	Ki	< 500 nM
NCC(C(=O)Nc1nc(-c2c[nH]c3ncccc23)cs1)c1cccc(Cl)c1Cl (stereo not shown) [II-195]	Ki	< 500 nM
O=C(Cc1cccc(S(=O)(=O)NC2CC2)c1)Nc1nc(-c2c[nH]c3ncccc23)cs1 [II-6]	Ki	< 500 nM
O=C1CC[C@H](C(=O)Nc2nc(-c3c[nH]c4ncccc34)cs2)O1 [II-155]	Ki	< 500 nM
O=C(Cc1ccccc1F)Nc1csc(-c2c[nH]c3ncccc23)n1 [II-60]	Ki	< 500 nM
CC(C)N1CCN(S(=O)(=O)c2cccc(CC(=O)Nc3nc(-c4c[nH]c5ncccc45)cs3)c2)CC1 [II-89]	Ki	500 to 5000 nM
O=C(Nc1nc(-c2c[nH]c3ncccc23)cs1)[C@@H]1CCCN1 [II-171]	Ki	< 500 nM
O=C(CCc1ccccc1)N(c1nc(-c2c[nH]c3ncccc23)cs1)C1CC1 [II-54]	Ki	< 500 nM
CC(=O)N[C@H](C)C(=O)Nc1nc(-c2c[nH]c3ncccc23)cs1 [II-156]	Ki	500 to 5000 nM
N#CC1(C(=O)Nc2nc(-c3c[nH]c4ncccc34)cs2)CC1 [II-133]	Ki	< 500 nM
CC(=O)N[C@@H](C)C(=O)Nc1nc(-c2c[nH]c3ncccc23)cs1 [II-145]	Ki	500 to 5000 nM
NCCC(C(=O)Nc1nc(-c2c[nH]c3ncccc23)cs1)c1ccc(F)cc1 (stereo not shown) [II-190]	Ki	< 500 nM
O=C(Cc1ccc2c(c1)OCO2)Nc1nc(-c2c[nH]c3nccc(F)c23)cs1 [II-18]	Ki	< 500 nM
CS(=O)(=O)NCC(=O)Nc1nc(-c2c[nH]c3ncccc23)cs1 [II-217]	Ki	< 500 nM
O=C1CC[C@@H](C(=O)Nc2nc(-c3c[nH]c4ncccc34)cs2)N1 [II-148]	Ki	< 500 nM
O=C(Nc1nc(-c2c[nH]c3ncccc23)cs1)C1CCOC1 (stereo not shown) [II-172]	Ki	< 500 nM
COc1cccc(CC(=O)Nc2nnc(-c3c[nH]c4ncccc34)s2)c1 [I-21]	Ki	< 500 nM
O=C(Cc1ccccc1)N(c1nc(-c2c[nH]c3ncccc23)cs1)C1CC1 [I-20]	Ki	< 500 nM
O=C(Cc1cccc(OCCCN2CCNCC2)c1)Nc1nc(-c2c[nH]c3nccc(F)c23)cs1 [II-36]	Ki	500 to 5000 nM
CCS(=O)(=O)NCC(=O)Nc1nc(-c2c[nH]c3ncccc23)cs1 [II-218]	Ki	< 500 nM
COc1cccc(CC(=O)Nc2nc(-c3c[nH]c4nccc(F)c34)cs2)c1 [II-19]	Ki	< 500 nM
O=C(N[C@@H](CO)c1ccccc1)c1nc(-c2c[nH]c3ncccc23)cs1 [II-185]	Ki	500 to 5000 nM
CC(CN(C)C)NC(=O)Nc1nc(-c2c[nH]c3ncccc23)cs1 (stereo not shown) [II-242]	Ki	500 to 5000 nM
O=C(Cc1cccc(OCCCC2CCNCC2)c1)Nc1nc(-c2c[nH]c3ncc(F)cc23)cs1 [II-135]	Ki	< 500 nM
COc1cccc(CC(=O)Nc2nc(-c3c[nH]c4nccc(Cl)c34)cs2)c1 [II-92]	Ki	< 500 nM
CN[C@@H](Cc1ccccc1)C(=O)Nc1nc(-c2c[nH]c3ncccc23)cs1 [II-178]	Ki	< 500 nM
O=C(Nc1nc(-c2c[nH]c3ncccc23)cs1)NC1CCC(C(=O)O)CC1 (stereo not shown) [II-239]	Ki	500 to 5000 nM
COCC(=O)Nc1nc(-c2c[nH]c3ncccc23)cs1 [II-142]	Ki	500 to 5000 nM
O=C(Cc1ccc(F)cc1F)N(c1nc(-c2c[nH]c3ncccc23)cs1)C1CC1 [II-45]	Ki	< 500 nM
CN1CCN(CCCOc2cccc(CC(=O)Nc3nc(-c4c[nH]c5ncc(F)cc45)cs3)c2)CC1 [II-137]	Ki	500 to 5000 nM
Nc1cccc(C(O)C(=O)Nc2nc(-c3c[nH]c4ncccc34)cs2)c1 (stereo not shown) [II-212]	Ki	< 500 nM
O=C(Cc1cc2c(cc1Cl)OCO2)Nc1nnc(-c2c[nH]c3ncccc23)s1 [II-10]	Ki	500 to 5000 nM
O=C(CCc1ccccc1)Nc1nc(-c2c[nH]c3nccc(F)c23)cs1 [II-15]	Ki	< 500 nM
CN1CCN(CCCN(C(=O)Cc2cccc(NS(C)(=O)=O)c2)c2nc(-c3c[nH]c4ncccc34)cs2)CC1 [II-203]	Ki	< 500 nM
CC(C)[C@H](NS(C)(=O)=O)C(=O)Nc1nc(-c2c[nH]c3ncccc23)cs1 [II-223]	Ki	< 500 nM
CS(=O)(=O)N1CCC[C@@H]1C(=O)Nc1nc(-c2c[nH]c3ncccc23)cs1 [II-230]	Ki	< 500 nM
CC(C)[C@@H](NS(C)(=O)=O)C(=O)Nc1nc(-c2c[nH]c3ncccc23)cs1 [II-227]	Ki	< 500 nM
